assay: Caco-2 membrane permeability, improved method as used in the following Examples (96-well, 20 to 24 h preincubation); format: in vitro ADME; settings: human, Caco-2, Caco-2
Positions of bridges follow the written chain, without caps; N, C: chain ends. Non-standard residues stand in square brackets, D forms with d. Residues, ends and D or L forms follow the SMILES beside them. *: point of attachment. NMeAbu(3,3-F2-piperidino) = CN[C@@H](CCN1CCCC(F)(F)C1)C(=O)O; NMePhe(3-Cl) = CN[C@@H](Cc1cccc(Cl)c1)C(=O)O; NMeF = CN[C@@H](Cc1ccccc1)C(=O)O; NMeL = CN[C@@H](CC(C)C)C(=O)O; Propyl(2R-OH) = C[C@@H](O)C*; NMeV = CN[C@H](C(=O)O)C(C)C; Piperidide = C1CCN(*)CC1; NBuGly = CCCCNCC(=O)O; Sar = CNCC(=O)O; tBu = CC(C)(C)*

compound: CCCCN1CC(=O)N(C)[C@@H](C(C)C)C(=O)N[C@@H](CC(C)C)C(=O)N(C)[C@@H](Cc2ccccc2)C(=O)N(C)[C@@H](CCN2CCCC(F)(F)C2)C(=O)N[C@H](C(=O)N2CCCCC2)CC(=O)N[C@H](C)C(=O)N(C)[C@@H](Cc2ccccc2)C(=O)N[C@@H](CC(C)C)C(=O)N(C)[C@@H](CC(C)C)C(=O)N[C@@H]([C@@H](C)O)C1=O [pd388] ([dA][NMeF]L[NMeL]T[NBuGly][NMeV]L[NMeF][NMeAbu(3,3-F2-piperidino)]D-Piperidide; lactam N-11)
Papp A→B at 180 min, ×10⁻⁶ cm/s: 1.8

compound: CCCCN1CC(=O)N(C)[C@@H](Cc2ccccc2)C(=O)N(C)[C@@H](CC(C)C)C(=O)N[C@@H](COC(C)(C)C)C(=O)N(C)[C@@H](CC(C)C)C(=O)N[C@H](C(=O)N2CCCCC2)CC(=O)N(C)CC(=O)N(C)[C@@H](Cc2cccc(Cl)c2)C(=O)N[C@@H](COC[C@@H](C)O)C(=O)N(C)[C@@H](CC(C)C)C(=O)N[C@@H]([C@@H](C)O)C1=O [pd490] ([Sar][NMePhe(3-Cl)]S(Propyl(2R-OH))[NMeL]T[NBuGly][NMeF][NMeL]S(tBu)[NMeL]D-Piperidide; lactam N-11)
Papp A→B at 180 min, ×10⁻⁶ cm/s: 1

compound: CC(C)C[C@H]1C(=O)N[C@@H](COC(C)(C)C)C(=O)N(C)[C@@H](Cc2ccccc2)C(=O)N(C)[C@@H](C(C)C)C(=O)N[C@H](C(=O)N2CCCCC2)CC(=O)N[C@H](C(C)C)C(=O)N(C)[C@@H](Cc2ccccc2)C(=O)N[C@@H](COc2cccc(Cl)c2)C(=O)N(C)[C@@H](C)C(=O)N[C@@H]([C@@H](C)O)C(=O)N(C)CC(=O)N1C [pd342]
Papp A→B at 180 min, ×10⁻⁶ cm/s: 1.9

---

Assay: Caco-2 membrane permeability, improved method as used in the following Examples (96-well, 20 to 24 h preincubation)
Format: in vitro ADME
Settings: human, Caco-2, Caco-2
Procedure: In the following Examples, membrane permeability was measured in accordance with the improved method established as described above. […] Each well was shaken at 5% CO2, 37° C., and 80 rpm, and 180 minutes after the initiation, the sample on the basal side was collected and the permeation amount was measured by LC/MS. The membrane permeability coefficient (Papp) was calculated from the permeation amount. […]
Positions of bridges follow the written chain, without caps; N, C: chain ends. Non-standard residues stand in square brackets, D forms with d. Residues, ends and D or L forms follow the SMILES beside them. *: point of attachment. Glu(NHSO2Me) = CS(=O)(=O)NC(=O)CC[C@H](N)C(=O)O; NMePhe(3-Cl) = CN[C@@H](Cc1cccc(Cl)c1)C(=O)O; NMehPhe = CN[C@@H](CCc1ccccc1)C(=O)O; NMeF = CN[C@@H](Cc1ccccc1)C(=O)O; hPhe = N[C@@H](CCc1ccccc1)C(=O)O; Butyl(3-Me,3-OH) = CC(C)(O)CC*; NMeL = CN[C@@H](CC(C)C)C(=O)O; NMeV = CN[C@H](C(=O)O)C(C)C; NMeAbu = CC[C@H](NC)C(=O)O; NMeA = CN[C@@H](C)C(=O)O; Piperidide = C1CCN(*)CC1; NBuGly = CCCCNCC(=O)O; Isopentyl = CC(C)CC*; Sar = CNCC(=O)O; tBu = CC(C)(C)*
Measured Papp A→B at 180 min of individual entries

compound: CC(C)C[C@@H]1NC(=O)[C@H](C)N(C)C(=O)C[C@@H](C(=O)N2CCCCC2)NC(=O)[C@H](CC(C)C)N(C)C(=O)CN(C)C(=O)[C@H]([C@@H](C)O)NC(=O)[C@H](CC(C)C)N(C)C(=O)[C@H](CCc2ccccc2)N(C)C(=O)[C@H](COCCC(C)(C)O)NC(=O)[C@H](Cc2ccccc2)N(C)C(=O)[C@H](CC(C)C)N(C)C1=O [pd437] ([NMeA]L[NMeL][NMeF]S(Butyl(3-Me,3-OH))[NMehPhe][NMeL]T[Sar][NMeL]D-Piperidide; lactam N-11)
modifier: =
Papp A→B at 180 min (×10⁻⁶ cm/s): 1.3
--
compound: CCCCN1CC(=O)N(C)[C@@H](CC(C)C)C(=O)N[C@@H](CCC(=O)NS(C)(=O)=O)C(=O)N(C)[C@@H](Cc2cccc(Cl)c2)C(=O)N(C)[C@@H](C(C)C)C(=O)N[C@H](C(=O)N2CCCCC2)CC(=O)N[C@H](CC(C)C)C(=O)N(C)[C@@H](Cc2cccc(Cl)c2)C(=O)N[C@@H](CC(C)C)C(=O)N(C)[C@@H](CC)C(=O)N[C@@H]([C@@H](C)O)C1=O [pd61] ([dL][NMePhe(3-Cl)]L[NMeAbu]T[NBuGly][NMeL][Glu(NHSO2Me)][NMePhe(3-Cl)][NMeV]D-Piperidide; lactam N-11)
modifier: <
Papp A→B at 180 min (×10⁻⁶ cm/s): 0.094
--
compound: CC(C)CCOC[C@@H]1NC(=O)[C@H](CC(C)C)N(C)C(=O)CN(C)C(=O)[C@H]([C@@H](C)O)NC(=O)[C@H](CC(C)C)N(C)C(=O)[C@H](COCCC(C)(C)O)NC(=O)[C@H](Cc2ccccc2)N(C)C(=O)[C@@H](C(C)C)NC(=O)C[C@@H](C(=O)N2CCCCC2)NC(=O)[C@H](CC(C)C)N(C)C(=O)[C@H](Cc2ccccc2)N(C)C1=O [pd433] ([dV][NMeF]S(Butyl(3-Me,3-OH))[NMeL]T[Sar][NMeL]S(Isopentyl)[NMeF][NMeL]D-Piperidide; lactam N-11)
modifier: =
Papp A→B at 180 min (×10⁻⁶ cm/s): 1.4
--
compound: CC(C)C[C@H]1NC(=O)C[C@@H](C(=O)N2CCCCC2)NC(=O)[C@H](C)N(C)C(=O)[C@H](CC(C)C)N(C)C(=O)[C@H](COC(C)(C)C)NC(=O)[C@H](CC(C)C)N(C)C(=O)CN(C)C(=O)[C@H]([C@@H](C)O)NC(=O)[C@H](CC(C)C)N(C)C(=O)[C@H](CCc2ccccc2)NC(=O)[C@H](Cc2ccccc2)N(C)C1=O [pd314] ([dL][NMeF][hPhe][NMeL]T[Sar][NMeL]S(tBu)[NMeL][NMeA]D-Piperidide; lactam N-11)
modifier: =
Papp A→B at 180 min (×10⁻⁶ cm/s): 1.4

---

assay: Caco-2 membrane permeability, improved method as used in the following Examples (96-well, 20 to 24 h preincubation); format: in vitro ADME; settings: human, Caco-2, Caco-2 (cm/sec)
Positions of bridges follow the written chain, without caps; N, C: chain ends. Non-standard residues stand in square brackets, D forms with d. Residues, ends and D or L forms follow the SMILES beside them. *: point of attachment. NMePhe(3-Cl) = CN[C@@H](Cc1cccc(Cl)c1)C(=O)O; NMePhe(4-Cl) = CN[C@@H](Cc1ccc(Cl)cc1)C(=O)O; NMeF = CN[C@@H](Cc1ccccc1)C(=O)O; NMeL = CN[C@@H](CC(C)C)C(=O)O; NMeV = CN[C@H](C(=O)O)C(C)C; Piperidide = C1CCN(*)CC1; Sar = CNCC(=O)O; tBu = CC(C)(C)*

molecule: CC(C)C[C@H]1C(=O)N[C@@H](COC(C)(C)C)C(=O)N(C)[C@@H](Cc2ccccc2)C(=O)N(C)[C@@H](CC(C)C)C(=O)N[C@H](C(=O)N2CCCCC2)CC(=O)N2CCC[C@H]2C(=O)N(C)[C@@H](Cc2cccc(Cl)c2)C(=O)N[C@@H](C(C)C)C(=O)N(C)[C@@H](C(C)C)C(=O)N[C@@H]([C@@H](C)O)C(=O)N(C)CC(=O)N1C [pd156] (P[NMePhe(3-Cl)]V[NMeV]T[Sar][NMeL]S(tBu)[NMeF][NMeL]D-Piperidide; lactam N-11)
Papp A→B at 180 min (×10⁻⁶ cm/s): 2.9

molecule: CC[C@H](C)[C@@H]1NC(=O)[C@H](Cc2ccccc2)N(C)C(=O)CN(C)C(=O)C[C@@H](C(=O)N2CCCCC2)NC(=O)[C@H](C(C)C)N(C)C(=O)[C@H](COC(C)(C)C)NC(=O)[C@H](CC(C)C)N(C)C(=O)[C@H](Cc2ccc(Cl)cc2)N(C)C(=O)CN(C)C(=O)[C@H]([C@@H](C)O)NC(=O)[C@H](CC(C)C)N(C)C1=O [pd175] ([Sar][NMeF]I[NMeL]T[Sar][NMePhe(4-Cl)][NMeL]S(tBu)[NMeV]D-Piperidide; lactam N-11)
Papp A→B at 180 min (×10⁻⁶ cm/s): 1.1

Value source: patent US20200131669A1
